target: T1, recombinant human BTLA expressed at the cell surface of CHO cells (human, UniProt Q7Z6A9 31-289); experiment: flow cytometry on BTLA-transfected CHO cells, PE anti-human IgG detection, MFI against log nM IgG
T1 construct: also called BTLA-CHO cells; BTLA CHO cells
T1 sequence (Q7Z6A9 31-289 R157S limits assumed): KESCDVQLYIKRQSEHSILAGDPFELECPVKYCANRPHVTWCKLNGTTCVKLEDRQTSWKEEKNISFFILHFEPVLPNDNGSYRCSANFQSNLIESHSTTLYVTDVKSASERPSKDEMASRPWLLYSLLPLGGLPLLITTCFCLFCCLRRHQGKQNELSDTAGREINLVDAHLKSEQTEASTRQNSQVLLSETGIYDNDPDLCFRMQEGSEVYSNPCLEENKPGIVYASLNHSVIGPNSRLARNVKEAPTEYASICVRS
observable: EC50 (nM)
Reply with just the number (in nM).

Req: Field request: EC50 | item: 11-4C9 (antibody, V domains shown, The prefix 11- appears only on the sheets; also called 4C9 human monoclonal antibody) VH: QITLKESGPTLVKPTQTLTLTCTFSGFSLSTSGVGVAWIRQPPGKALEWLALIYWDDDKRYSPSLKSRLTITKDTSKNQVVLTMSNMDPVDTATYYCAHTRIAEVRGVIYYYYGIDVWGQGTTVTVSS VL: EIVLTQSPGTLSLSPGERATLSCRASQSVSSTYLVWYQQKPGQAPRLLIYGASSRATGIPDRFSGSGSGTDFTLTISRLEPEDFAVYYCQQYGSSWTFGQGTKVEIK
Resp: 1.56

Req: What would you report for 10H6 human monoclonal antibody (antibody, V domains shown) VH: QVQLVESGGGVVQPGRSLRLSCAASGFTFSSYDMHWVRQAPGKGLEWVAAIWNDGSNKYYADSVKGRFTISRDNSKNTLYLQMNSLRAEDTAVYYCARDRITMVRGVITQYYGMDVWGQGTTVTVSS VL: DIQLTQSPSSLSASVGDRVTITCRVSQGISSYLNWYRQKPGKVPKLLIYSASNLQSGVPSRFSGSGSGTDFTLTISSLQPEDVATYYGQRTYNAPYTFGQGTKLEIK ?
Resp: 1.89

Req: Now give it for 3C2 human monoclonal antibody (antibody, IgG1, V domains shown) VH: QVQLQESGPGLVKPSETLSLTCTISGGSISNYYWNWIRQPPGKGLEWIGYIYYSTSTKYNPSLKSRVTMSVETSKNQFSLKLSSVTAADTAVYYCARVKVYSTGWFFDYWGQGTLVTVSS VL: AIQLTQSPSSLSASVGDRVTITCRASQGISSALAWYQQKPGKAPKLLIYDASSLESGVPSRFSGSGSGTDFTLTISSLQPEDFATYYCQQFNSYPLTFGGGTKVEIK too.
Resp: 1.78

Req: Next entry: 11E2 human monoclonal antibody (antibody, IgG1, V domains shown, kappa light chain (VK L15)) VH: EVQLVESGGGVIRPGGSLRLSCAASGFTFDDYGMSWVRQAPGKGLEWVSGINWNGGSTGYAASVKGRFTISRDNAKNSLYLQMNSLRAEDSALYYCARDYYYGPGSPNYFYYAMDVWGQGTTVTVSS VL: DIQMTQSPSSLSASVGDRVTITCRASQGISSWLAWYQQKPEKAPKSLIYAASSLQSGVPSRFSGSGSGTDFTLTISSLQPEDFATYYCQQYNSYPRTFGQGTKVEIK
Resp: 3.25
